src = paper PMC11213902

# protocol_description: In vivo oral bioavailability study
# Set-up: species or system SD rats
# assay_context: male, rat plasma OBB, 100 mg/kg, n = 6, mean ± SD
# Procedure: Male SD rats weighing 220 ± 15 g were obtained from the Guangdong Medical Laboratory Animal Center (GDMLAC, Guangzhou, China). After fasting overnight, six rats were taken in each group, based on respective treatment at a dose of 100 mg/kg each: OBB-HPMCAS and OBB-SUS (OBB suspension). […] After centrifugation (12,000 rpm, 10 min), the supernatant was analyzed by LC–MS/MS system. Pharmacokinetic parameters were calculated based on the plasma pharmacokinetics of OBB. […]
experimental_endpoint: half-life (min)
Numbers only, in min.

Prompt: Consider the compound shown here: `COc1ccc2cc3n(c(=O)c2c1OC)CCc1cc2c(cc1-3)OCO2` What is its recorded half-life?
Completion: 179
